- Test system: Plasmodium falciparum
- Test summary: Calibr Malaria Delayed Death Assay SOP
- Format: functional, organism-based
- Parameters: scale not given: in the data most compounds retested in dose-response had high values
- Condition info: concentration 4.99e-06 (unit not given; other assays of the set use mol/L)
Out of some 38,000 compounds screened, about 1,200 (3.2%) showed an effect of 50% or more. The median lay at about -58%. The sample holds strong results, similar compounds and a random draw of the others, so the mix is not that of the screen.
Assign Percent Effect to each entry below.
Field format: number, assumed %, no unit text.

Input line: // lookup Percent Effect | system=Plasmodium falciparum | key= CN(Cc1cccnc1)c1nccc(N2CCN[C@H]3CS(=O)(=O)C[C@H]32)n1
Output line: -59

Input line: Would you mind doing CN1CCCN(c2nccc(-c3c[nH]nc3-c3ccncc3)n2)CC1 as well?
Output line: 65.32

Input line: Proceed to c1cncc(-c2nc(C3CC3)ncc2-c2ccnc(N3CCCC3)n2)c1
Output line: -168.7

Input line: Do the same for CN(Cc1cccnc1)c1nc(-c2ccccn2)nc2c1CCNCC2 please
Output line: 53.3

Input line: Also CN(Cc1ncc[nH]1)c1nc(-c2ccccn2)nc2c1CCNCC2 , if possible.
Output line: 54.09

Input line: // same read-out, input: Cc1cc(CNC(=O)N2CCN(c3ccc(Cl)cn3)CC2)c(C)o1
Output line: -63.56

Input line: Lookup c1ccc(-c2nc3c(c(NCCn4ccnn4)n2)CCNCC3)nc1
Output line: 6.036

Input line: Next up: OC[C@@H]1CCCN1c1nccc(-c2c[nH]nc2-c2ccncc2)n1
Output line: 66.81

Input line: Also check CN(Cc1nccs1)c1nc(-c2ccccn2)nc2c1CCNCC2
Output line: 83.34

Input line: Next compound: CN(Cc1cccnc1)Cc1cncc2c1CCN(c1ccccn1)C2.Cl.Cl.Cl
Output line: -32.27

Input line: Next: CN(Cc1ccccc1-n1cccn1)c1nc(N)nc2c1CCNCC2
Output line: -16.16

====

- System: Plasmodium falciparum
- Test summary: Calibr Malaria Delayed Death Assay SOP
- Type: functional, organism-based
- Design: scale not given: in the data most compounds retested in dose-response had high values
- Condition info: concentration 4.99e-06 (unit not given; other assays of the set use mol/L)
Among all 38,000 compounds or so, about 1,200 (3.2%) showed an effect of 50% or more. The median lay at about -58%. This excerpt belongs to a sample that is enriched for strong results.
Measure: Percent Effect (%)
The answer is to be given in %; state only the numeric part.

Input line: I'd like to know its Percent Effect. The molecule in question is COc1ccccc1C(=O)Nc1nc2c(s1)CN(S(=O)(=O)C1CC1)CC2
Output line: -86.55

Input line: How about Cc1cccc2nc(CNCc3cccc4c3OCCCO4)cn12 ?
Output line: 46.47

Input line: Same question, CCc1nc(CN2CCCC2C(=O)NC)cs1 (stereo unspecified) this time
Output line: -71.78

Input line: Similarly, O=C(O)C(F)(F)F.O=C(O)C(F)(F)F.O=S1(=O)c2ccccc2C2(CCN(Cc3cccnc3)C2)N1CC1CC1 (stereo unspecified) ?
Output line: -8.635

Input line: Check O=C(Nc1cn[nH]c1)N1CCN(CCSc2ccccc2)CC1 too.
Output line: -6.157

Input line: Moving on to Cc1cccn2cc(CNCc3cccc4c3OCCCO4)nc12
Output line: 52.57

Input line: // next record CCn1ccnc1CN1CCCC1C(=O)Nc1nccs1 (stereo unspecified)
Output line: 84.6

Input line: Ok, now O=c1c2ccccc2nc2n1C(CSc1ccc(Cl)cc1Cl)CN2 (stereo unspecified)
Output line: -150.5

Input line: What about CCN(CC)Cc1nnc2sc(-c3cc(C(C)C)[nH]n3)nn12 ?
Output line: -70.51

Input line: Quick one: CC(=O)Nc1cccc(CN2CCCC2C(=O)Nc2nccs2)c1 (stereo unspecified)
Output line: -76.05

Input line: Now consider O=c1ccc2c(n1CC1CC1)CCN(c1ncccn1)CC2 .
Output line: 5.282

====

- Tested on: Plasmodium falciparum
- Test summary: Calibr Malaria Delayed Death Assay SOP
- Type: functional, organism-based
- Parameters: scale not given: in the data most compounds retested in dose-response had high values
- Condition info: concentration 4.99e-06 (unit not given; other assays of the set use mol/L)
About 1,200 (3.2%) of roughly 38,000 compounds showed an effect of 50% or more. The median lay at about -58%. Only a selection was taken, and strong results are over-represented in it overall.
Exercise: state measured Percent Effect for each of the compounds provided.
Answer format: numeric, % implied, no suffix.

Input line: So what Percent Effect did CN(Cc1ccsc1)c1nc(-c2ccccn2)nc2c1CCNCC2 get with Plasmodium falciparum?
Output line: 79.12

Input line: Next compound: COc1cccc(CCC(=O)Nc2cnc3c(c2)c(C)nn3C)c1OC
Output line: -140.4

Input line: Same question, CCOCc1nc2c(c(N(C)Cc3ccsc3)n1)CCNCC2 this time
Output line: 63.06

Input line: What do we get for CN(CC1Cc2ccccc2CN1C)c1nc(N)nc2c1CCNCC2 (stereo unspecified) ?
Output line: -16.74

Input line: Note, next up: CCOCc1nc2c(c(N(C)Cc3nonc3C)n1)CCNCC2
Output line: 45.51

Input line: Ok, now O=C(NCc1ccc2c(c1)OCO2)c1ccccc1C1CCNC1 (stereo unspecified)
Output line: -7.767

====

Provide the reported Percent Effect of each item.
- Test system: Plasmodium falciparum
- Test summary: Calibr Malaria Delayed Death Assay SOP
- Type: functional, organism-based
- Design: scale not given: in the data most compounds retested in dose-response had high values
- Condition info: concentration 4.99e-06 (unit not given; other assays of the set use mol/L)
Screen size: about 38,000 compounds; about 1,200 (3.2%) showed an effect of 50% or more. The median lay at about -58%. What follows is part of a selection rich in strong results, with near analogues and random picks from the rest.
Please respond with the number in % and leave the unit unwritten.

Input line: // map OC(CNc1nc(C2CCCC2)nc2c1CCNCC2)C(F)(F)F (stereo unspecified) to recorded Percent Effect (system: Plasmodium falciparum)
Output line: 63.72

Input line: And what about the compound COc1ccc(CN2CCC(O)(CN3CCCCC3)C2)c(C)c1 (stereo unspecified) ?
Output line: 66.37

Input line: What do you get for CSc1nccn1-c1cccc(C(=O)NCCN2CCS(=O)(=O)CC2)c1 ?
Output line: -149.1

Input line: Ok, now Cc1c(-c2cc(C(F)(F)F)nc(N3CCC(N)CC3)n2)cnn1C
Output line: 19.65

Input line: Again, but for Cc1ccc(C(=O)Nc2ccc3c(c2)N(C)CCN(C)C3)c(=O)[nH]1
Output line: -25.5

Input line: Also check CCCn1ncc(CN(CCN(C)C)Cc2ccsc2)c1C
Output line: 54.25

Input line: // repeat for CCCS(=O)(=O)NCCc1ncc(CC)s1 and report
Output line: -128.9

Input line: Lookup COc1ccc(F)cc1CN1CCC(O)(CN2CCCCC2)C1 (stereo unspecified)
Output line: 69.8

Input line: Record: Nc1nnc(SCc2cc(=O)n3c4c(sc3n2)CCCC4)s1
Output line: -2.534

Input line: Now consider CCc1ccc(-c2cc(C(F)(F)F)nc(N3CCC(N)CC3)n2)cc1 .
Output line: 81.95

Input line: Follow-up item: COCC(O)CN1CCC(=O)N(Cc2ccccc2)Cc2ccccc21 (stereo unspecified)
Output line: -18.3

Input line: Continue with CCn1cc(-c2cc(C(F)(F)F)nc(NC3CCCC3)n2)c(C)n1
Output line: -77.03

Input line: Let us now turn to Cc1cc(F)ccc1CN1CCCC(O)(CN2CCCC2)C1 (stereo unspecified)
Output line: 66.53

Input line: Note, next up: FC(F)(F)c1cc(-c2cccs2)nc(N2CCN3CCCC3C2)n1 (stereo unspecified)
Output line: -49.64

Input line: // repeat for COc1ccc(F)cc1CN1CCCC1Cn1nc(C)nc1C (stereo unspecified) and report
Output line: -22.72

Input line: Similarly, CC(C)n1ccnc1C1CCCN(Cc2ccc(F)c(F)c2)C1 (stereo unspecified) ?
Output line: 8.859

Input line: Please answer likewise for CCOCc1nc(N2CCCC2)sc1C(=O)NCc1ccco1
Output line: -71.71

Input line: # repeat for Cc1cccc(N2CC[C@H]3CO[C@H](CN(C)Cc4ccco4)[C@H]3C2)n1
Output line: 48.83

Input line: Same again, this time with CC(C)NC(=O)N1CCN(C(=O)c2ccco2)CC2(CC(=O)N(C)C2)C1 (stereo unspecified)
Output line: -8.212

Input line: Would you mind doing CCN(CC)[C@H]1COC[C@@H]2CN(Cc3cnn(C)c3)C[C@@H]21 as well?
Output line: -7.149

Input line: What do we get for CCCn1ccnc1CN1CCC(O)(CN2CCCCC2)C1 (stereo unspecified) ?
Output line: 17.5

Input line: And for CN(Cc1ccco1)C[C@H]1OC[C@@H]2CCN(Cc3cccnc3)C[C@@H]21.O=C(O)C(F)(F)F.O=C(O)C(F)(F)F.O=C(O)C(F)(F)F ?
Output line: -41.37

Input line: Could you do the same for COCCNc1nc(C2CCCC2)nc2c1CCNCC2 , please?
Output line: 52.24

Input line: Same read-out for COCC(=O)N1CCC2(CCCN(Cc3cc(OC)ccc3F)C2)C1 (stereo unspecified) ?
Output line: -77.74

Input line: Ok, now O=C(O)C(F)(F)F.O=C(c1cccs1)N1CC[C@@H]2CN(C3CCOCC3)CCO[C@@H]2C1
Output line: -28.53

Input line: Subsequent entry: CC[C@H]1CN(C(=O)CCn2c(C)cccc2=O)CC[C@@]1(C)O
Output line: -150.9

Input line: # iterate: O=C(c1ccc2c(c1)COC2)N1CCCN(Cc2cscn2)CC1
Output line: -90.53

Input line: Record: COc1ccc(F)cc1CN1CCCC(c2cc(C(N)=O)[nH]n2)C1 (stereo unspecified)
Output line: -17.41

Input line: One more compound: COCc1noc(CNc2nc(C3CCCC3)nc3c2CCNCC3)n1
Output line: 26.49

Input line: Then this compound: Cn1ccnc1CN1CCCC(CCc2ccc(F)c(F)c2)C1 (stereo unspecified)
Output line: 73.33

Input line: Another compound: CCCn1ncc(CN(Cc2ccsc2)Cc2ccco2)c1C
Output line: -133.4

Input line: # repeat for O=C(c1cccc2cn[nH]c12)N1CCCC1c1noc(C2CC2)n1 (stereo unspecified)
Output line: -53.04

Input line: Entry to check: Cc1[nH]c(=O)[nH]c(=O)c1CN1CCCC(CCc2ccccc2F)C1 (stereo unspecified)
Output line: -31.73

Input line: Also, COCCNc1nc2c(c(NCc3ccncc3)n1)CCNCC2 please.
Output line: 12.96

Input line: Now consider CN(C)S(=O)(=O)N1CCOCC1CC(=O)NCCOc1ccccc1 (stereo unspecified) and answer again.
Output line: -2.235

Input line: Same question for CN(Cc1ccco1)C[C@H]1OC[C@@H]2CCN(Cc3nccs3)C[C@@H]21 please.
Output line: 9.527

Input line: Please answer likewise for COc1cc(C(=O)NC(C)c2cccs2)cc2c1OCCO2 (stereo unspecified)
Output line: 13.73

Input line: What do you get for CCc1nc(CCNC(=O)Nc2cccc(C(=O)NC)c2C)cs1 ?
Output line: -100.3

Input line: What would you report for Cc1[nH]c(=O)[nH]c(=O)c1CN1CCCC(CCc2ccc(F)cc2F)C1 (stereo unspecified) ?
Output line: 49.97

Input line: And Cc1ccc(C)c(Oc2ccc(CNC(=O)C3CCC(=O)N3)cn2)c1 (stereo unspecified) ?
Output line: -45.06

Input line: Then this compound: O=C(NCC1(O)CCC1)c1cccc(-n2cccn2)c1
Output line: -36.51

Input line: Do the same for C=C(C)COc1ccccc1CNCCc1c[nH]cn1 please
Output line: 4.371

Input line: Also, CCc1ccccc1OCCNCCc1c[nH]cn1 please.
Output line: 69.73

Input line: Also CCCn1ccnc1CN1CCCC(O)(CN2CCCC2)C1 (stereo unspecified) ?
Output line: -81.98

Input line: O=C1CCCN1Cc1ncn2c1CN(C(=O)C1CC=CC1)CCC2 , same question.
Output line: -7.909

Input line: Moving on to the next compound: CN(Cc1noc2c1CCCC2)C(=O)Nc1cncc(F)c1
Output line: -40.24
